Tested on: KM12 colon
Assay: NCI tumour cell line growth inhibition, 48 h
Answer each item with its documented TGI.
Output spec: scalar in µM, unitless text.

Exam item: Item under review: COc1cccc2c1C(=O)c1ccc3cc(CO)cc(O)c3c1C2=O . Reported TGI?
Marked response: 6.14

Exam item: Item under review: CC[O-].CC[O-].O=Nc1ccc2cc([O-])ccc2c1.O=Nc1ccc2cc([O-])ccc2c1.[Ti+4] . Reported TGI?
Marked response: 4.65

###

System: DU-145 prostate
Test: NCI tumour cell line growth inhibition, 48 h
Answer each item with its documented TGI.

Exam item: Item under review: C=CC1(CBr)CCC(C(C)(C)Br)O1 (centres undefined) . Reported TGI?
Marked response: 25.7 µM

Exam item: Item under review: Cn1c(=O)c2[nH]c(COCc3nc4c([nH]3)c(=O)n(C)c(=O)n4C)nc2n(C)c1=O . Reported TGI?
Marked response: > 100 µM

Exam item: Item under review: COC(=O)[C@H]1ON2O[C@@H](O[C@H]3CCCC[C@@H]3C(C)(C)c3ccccc3)C[C@@H]3CC[C@H]1[C@@]32C . Reported TGI?
Marked response: > 100 µM

Exam item: Item under review: CC1(C)OC[C@@]2([C@@H]3CC[C@@H](C3)C2(C)C)N1O . Reported TGI?
Marked response: > 100 µM

Exam item: Item under review: O=C(O)c1cc2c(cc1S(=O)(=O)O)C1C(C3C2C2(Cl)C(Cl)=C(Cl)C3(Cl)C2(Cl)Cl)C2(Cl)C(Cl)=C(Cl)C1(Cl)C2(Cl)Cl (centres undefined) . Reported TGI?
Marked response: > 100 µM

Exam item: Item under review: O=C1NC(N/N=C/C(O)C(O)C(O)C(O)CO)=N/C1=C\c1cccs1 (centres undefined) . Reported TGI?
Marked response: > 100 µM

Exam item: Item under review: CCc1ccc(CCC(=O)Nc2ncc(Cc3ccccc3)s2)o1 . Reported TGI?
Marked response: > 100 µM

Exam item: Item under review: C=CCN1C(=O)/C(=C/c2cccs2)N=C1SC1OC(COC(=O)c2ccccc2)C(OC(=O)c2ccccc2)C1OC(=O)c1ccccc1 (centres undefined) . Reported TGI?
Marked response: > 100 µM

Exam item: Item under review: CCOP(=O)(OCC)C(Cc1ccccc1)N=C(c1ccccc1)c1ccccc1 (centres undefined) . Reported TGI?
Marked response: 36.3 µM
